Target: UniProt:Q13526
Sequence (Q13526 whole entry): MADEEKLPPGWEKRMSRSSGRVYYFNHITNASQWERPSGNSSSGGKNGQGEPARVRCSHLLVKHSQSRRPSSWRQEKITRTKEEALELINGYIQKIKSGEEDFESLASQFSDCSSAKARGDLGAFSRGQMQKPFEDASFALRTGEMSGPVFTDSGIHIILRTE
Assay: Inhibition of recombinant human Pin1 (Met1 to Glu163 residues) expressed in Escherichia coli using Suc-Ala-Glu-cis-Pro-Phe-4-nitroanilide as substrate preincubated for 30 mins followed by substrate addition and measured for 90 secs by protease-coupled assay
# if measured IC50 < 2 µM: true  # else: false

MOL	CAT
O=C(NS(=O)(=O)c1ccccc1)c1ccc(-c2nc3ccccc3n2CCCOc2cccc3ccccc23)cc1	true
O=C(CCn1c(-c2ccc(C(=O)O)cc2)nc2ccccc21)Oc1cccc2ccccc12	true
O=C(CCn1c(-c2ccc(C(=O)O)cc2)nc2ccccc21)Nc1cccc([N+](=O)[O-])c1	false
O=C(O)c1ccc(-c2nc3ccccc3n2CCCOc2ccc(Oc3ccccc3)cc2)cc1	false
O=C(O)c1ccc(-c2nc3ccccc3n2CCCOc2cccc3ccccc23)cc1	true
O=C(CCn1c(-c2ccc(C(=O)O)cc2)nc2ccccc21)Nc1cccc(C(F)(F)F)c1	false
Cc1ccccc1NC(=O)CCn1c(CCC(=O)O)nc2ccccc21	false
COc1cccc(NC(=O)CCn2c(-c3ccc(C(=O)O)cc3)nc3ccccc32)c1	false
Cc1cccc(NC(=O)CCn2c(-c3ccc(C(=O)O)cc3)nc3ccccc32)c1	true
